target: Wee1 (h) (Homo sapiens, UniProt P30291); assay: Wee1 kinase (h) detection method, [γ-33P]-ATP filter assay; assay type: biochemical; conditions: C 0.1 μm compound
Sequence (P30291 whole entry): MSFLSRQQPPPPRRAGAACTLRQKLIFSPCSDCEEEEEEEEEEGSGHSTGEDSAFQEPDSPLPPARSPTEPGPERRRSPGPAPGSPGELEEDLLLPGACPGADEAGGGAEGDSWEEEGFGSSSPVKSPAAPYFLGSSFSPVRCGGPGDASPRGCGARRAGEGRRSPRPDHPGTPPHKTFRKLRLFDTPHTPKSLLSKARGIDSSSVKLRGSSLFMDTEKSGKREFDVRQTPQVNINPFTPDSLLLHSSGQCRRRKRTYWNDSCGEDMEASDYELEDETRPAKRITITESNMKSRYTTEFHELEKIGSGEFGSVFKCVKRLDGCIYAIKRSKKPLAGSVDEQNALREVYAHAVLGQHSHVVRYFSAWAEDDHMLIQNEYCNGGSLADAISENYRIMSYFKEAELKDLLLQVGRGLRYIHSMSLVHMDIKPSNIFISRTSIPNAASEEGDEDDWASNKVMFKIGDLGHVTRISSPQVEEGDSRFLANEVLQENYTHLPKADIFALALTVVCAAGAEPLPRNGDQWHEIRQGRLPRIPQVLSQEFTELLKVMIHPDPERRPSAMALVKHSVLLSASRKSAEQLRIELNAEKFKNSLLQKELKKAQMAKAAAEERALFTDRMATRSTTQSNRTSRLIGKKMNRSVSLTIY
Endpoint Name: Inh. (%) of Wee1 kinase enzyme activity
Lab book: enter the figure in %, no units written.

Here are 5 molecules together with their reported answers.
Value of measured Inh. (%) of Wee1 kinase enzyme activity for the entry `Cc1cc(Nc2ncc3c(n2)N2CCN=C2N(c2c(F)cccc2Cl)C3=O)cc(C(F)(F)F)c1N1CCN(C)CC1` : 61

Value of measured Inh. (%) of Wee1 kinase enzyme activity for the entry `Cc1cc(Nc2ncc3c(n2)N2CCN=C2N(c2c(F)cccc2Cl)C3=O)ccc1N1CCN(C(C)C)CC1` : 80

Value of measured Inh. (%) of Wee1 kinase enzyme activity for the entry `Cc1cc(Nc2ncc3c(n2)N2CCN=C2N(c2c(Cl)cccc2Cl)C3=O)ccc1N1CCN(C(C)C)CC1` : 74

Value of measured Inh. (%) of Wee1 kinase enzyme activity for the entry `Cc1cccc(Cl)c1N1C(=O)c2cnc(Nc3cc(Cl)c(N4CCN(C)CC4)c(Cl)c3)nc2N2CCN=C21` : 60

Value of measured Inh. (%) of Wee1 kinase enzyme activity for the entry `CN1CCN(c2c(F)cc(Nc3ncc4c(n3)N3CCN=C3N(c3c(Cl)cccc3Cl)C4=O)cc2Cl)CC1` : 86

---
Value of measured Inh. (%) of Wee1 kinase enzyme activity for the entry `Cc1cc(Nc2ncc3c(n2)N2CCN=C2N(c2c(Cl)cccc2Cl)C3=O)cc2c1CCN(C)C2` : 89

Value of measured Inh. (%) of Wee1 kinase enzyme activity for the entry `Cc1cc(Nc2ncc3c(n2)N2CCN=C2N(c2c(Cl)cccc2Cl)C3=O)cc(C)c1N1CCN(C)CC1` : 84

Value of measured Inh. (%) of Wee1 kinase enzyme activity for the entry `Cc1cc(Nc2ncc3c(n2)N2CCN=C2N(c2c(Cl)cccc2Cl)C3=O)cc(F)c1N1CCN(C)CC1` : 90

Value of measured Inh. (%) of Wee1 kinase enzyme activity for the entry `CN(C)C1CCN(c2ccc(Nc3ncc4c(n3)N3CCN=C3N(c3c(F)cccc3Cl)C4=O)cc2)CC1` : 81

Value of measured Inh. (%) of Wee1 kinase enzyme activity for the entry `CC(=O)N1Cc2cc(Nc3ncc4c(n3)N3CCN=C3N(c3c(F)cccc3Cl)C4=O)ccc2C2(CC2)C1` : 85

---

molecular target: Wee1 (h) (Homo sapiens, UniProt P30291); test: Wee1 kinase (h) detection method, [γ-33P]-ATP filter assay; assay type: biochemical; conditions: C 0.1 μm compound
Endpoint Name: Inh. (%) of Wee1 kinase enzyme activity
Lab book: enter the figure in %, no units written.

Here are 2 molecules together with their reported answers.
Inh. (%) of Wee1 kinase enzyme activity on Wee1 (h) (Homo sapiens, UniProt P30291) for `Cc1cc(Nc2ncc3c(n2)N2CCN=C2N(c2c(Cl)cccc2Br)C3=O)cc(F)c1N1CCC(N(C)C)CC1` is 85

Inh. (%) of Wee1 kinase enzyme activity on Wee1 (h) (Homo sapiens, UniProt P30291) for `Cc1cc(Nc2ncc3c(n2)N2CCN=C2N(c2c(C)cccc2Cl)C3=O)cc(Cl)c1N1CCN(C)CC1` is 71

---
Inh. (%) of Wee1 kinase enzyme activity on Wee1 (h) (Homo sapiens, UniProt P30291) for `CN1CCN(c2c(Cl)cc(Nc3ncc4c(n3)N3CCN=C3N(c3c(F)cccc3Cl)C4=O)cc2Cl)CC1` is 58

Inh. (%) of Wee1 kinase enzyme activity on Wee1 (h) (Homo sapiens, UniProt P30291) for `Cc1cc(Nc2ncc3c(n2)N2CCN=C2N(c2c(Cl)cccc2Cl)C3=O)cc(Br)c1N1CCN(C)CC1` is 81

---

molecular target: Wee1 (h) (Homo sapiens, UniProt P30291); test: Wee1 kinase (h) detection method, [γ-33P]-ATP filter assay; assay type: biochemical; settings: C 0.1 μm compound
Collected Inh. (%) of Wee1 kinase enzyme activity values appear next to each entry.
Lab book: enter the figure in %, no units written.

Here are 6 compounds together with their reported answers.
Inh. (%) of Wee1 kinase enzyme activity on Wee1 (h) (Homo sapiens, UniProt P30291) for `Cc1cc(Nc2ncc3c(n2)N2CCN=C2N(c2c(F)cccc2Cl)C3=O)cc(C)c1N1CCN(C)CC1` is 80

Inh. (%) of Wee1 kinase enzyme activity on Wee1 (h) (Homo sapiens, UniProt P30291) for `CN1Cc2cc(Nc3ncc4c(n3)N3CCN=C3N(c3c(Cl)cccc3Cl)C4=O)ccc2C(C)(C)C1` is 87

Inh. (%) of Wee1 kinase enzyme activity on Wee1 (h) (Homo sapiens, UniProt P30291) for `CN1CCCN(c2ccc(Nc3ncc4c(n3)N3CCN=C3N(c3c(F)cccc3Cl)C4=O)cc2)CC1` is 70

Inh. (%) of Wee1 kinase enzyme activity on Wee1 (h) (Homo sapiens, UniProt P30291) for `Cc1cc(Nc2ncc3c(n2)N2CCN=C2N(c2c(Cl)cccc2Br)C3=O)ccc1N1CCN(C)CC1` is 87

Inh. (%) of Wee1 kinase enzyme activity on Wee1 (h) (Homo sapiens, UniProt P30291) for `C[C@@H]1CN(c2ccc(Nc3ncc4c(n3)N3CCN=C3N(c3c(F)cccc3Cl)C4=O)cc2Cl)C[C@H](C)N1C` is 89

Inh. (%) of Wee1 kinase enzyme activity on Wee1 (h) (Homo sapiens, UniProt P30291) for `CN1CCN(c2ccc(Nc3ncc4c(n3)N3CCN=C3N(c3c(F)cccc3Cl)C4=O)cc2Cl)CC1` is 85

---
Inh. (%) of Wee1 kinase enzyme activity on Wee1 (h) (Homo sapiens, UniProt P30291) for `CN(C)C1CCN(c2ccc(Nc3ncc4c(n3)N3CCN=C3N(c3c(Cl)cccc3Cl)C4=O)cc2Br)CC1` is 82

---

target: Wee1 (h) (Homo sapiens, UniProt P30291); test: Wee1 kinase (h) detection method, [γ-33P]-ATP filter assay; type: biochemical; conditions: C 1 μm compound
Collected Inh. (%) of Wee1 kinase enzyme activity values appear next to each entry.
Lab book: enter the figure in %, no units written.

Here are 4 compounds together with their reported answers.
Value of measured Inh. (%) of Wee1 kinase enzyme activity for the entry CN1CCCN(c2ccc(Nc3ncc4c(n3)N3CCN=C3N(c3c(F)cccc3Cl)C4=O)cc2)CC1 [Example 103] : 92

Value of measured Inh. (%) of Wee1 kinase enzyme activity for the entry Cc1cc(Nc2ncc3c(n2)N2CCN=C2N(c2c(Cl)cccc2C(F)(F)F)C3=O)ccc1N1CCN(C)CC1 [Example 80] : 80

Value of measured Inh. (%) of Wee1 kinase enzyme activity for the entry Cc1cc(Nc2ncc3c(n2)N2CCN=C2N(c2c(F)cccc2Cl)C3=O)ccc1N1C[C@@H](C)N(C(C)C)[C@@H](C)C1 [Example 53] : 91

Value of measured Inh. (%) of Wee1 kinase enzyme activity for the entry COc1cc(Nc2ncc3c(n2)N2CCN=C2N(c2c(F)cccc2Cl)C3=O)cc(Cl)c1N1CCN(C)CC1 [Example 126] : 89

Attention now turns to another entry.
Value of measured Inh. (%) of Wee1 kinase enzyme activity for the entry CN1CCN(c2ccc(Nc3ncc4c(n3)N3CCN=C3NC4=O)cc2)CC1 [Example 93] : 0

---

Biological target: Wee1 (h) (Homo sapiens, UniProt P30291)
Assay: Wee1 kinase (h) detection method, [γ-33P]-ATP filter assay
Format: biochemical
Settings: C 0.1 μm compound
Protocol: Determination of the inhibitory effect of 6-(2-chlorophenyl)-2-((4-(4-methylpiperazin-1-yl)phenyl)amino)-8,9-dihydroimidazo[1,2-a]pyrimido[5,4-e]pyrimidin-5(6H)-one and Analogs on the Enzyme Activity of Wee1 Kinase by Using the Wee1 Kinase (h) Detection Method Then the stock solution of all compounds under test with 50× concentration in 100% DMSO was added to make the final concentration of 10/1/0.1/0.01 μM, and then mixed the mixture well. […]
Endpoint Name: Inh. (%) of Wee1 kinase enzyme activity
Lab book: enter the figure in %, no units written.

Here are 3 molecules together with their reported answers.
Inh. (%) of Wee1 kinase enzyme activity on Wee1 (h) (Homo sapiens, UniProt P30291) for CN1Cc2cc(Nc3ncc4c(n3)N3CCN=C3N(c3c(F)cccc3Cl)C4=O)ccc2C(C)(C)C1 [Example 9] is 79

Inh. (%) of Wee1 kinase enzyme activity on Wee1 (h) (Homo sapiens, UniProt P30291) for C[C@@H]1CN(c2ccc(Nc3ncc4c(n3)N3CCN=C3N(c3c(F)cccc3Cl)C4=O)cc2F)C[C@H](C)N1C [Example 45] is 80

Inh. (%) of Wee1 kinase enzyme activity on Wee1 (h) (Homo sapiens, UniProt P30291) for CN(C)C1CCN(c2ccc(Nc3ncc4c(n3)N3CCN=C3N(c3c(Cl)cccc3Cl)C4=O)cc2)CC1 [Example 138] is 77

Attention now turns to another entry.
Inh. (%) of Wee1 kinase enzyme activity on Wee1 (h) (Homo sapiens, UniProt P30291) for Cc1cc(Nc2ncc3c(n2)N2CCN=C2N(c2c(Cl)cccc2Cl)C3=O)ccc1N1C[C@@H](C)N(C)[C@@H](C)C1 [Example 77] is 86
